# TEST_NAME: Binding affinity to dA60.dT60 B-DNA duplex (unknown origin) assessed as change in melting temperature at 10 uM by UV-vis spectrophotometric analysis
PARAMETER: ΔTm (°C)
// note: answer is a bare numeric in °C

Worked examples follow.
{"SMILES_STRING": "COC(=O)c1cc(N2CCN(C)CC2)cc2[nH]c(-c3ccc(O)cc3)nc12", "ΔTm [°C]": 0}
{"SMILES_STRING": "CN1CCN(c2ccc3nc(-c4ccc(OCc5cn(CCCCN=[N+]=[N-])nn5)cc4)[nH]c3c2)CC1", "ΔTm [°C]": 0.5}
{"SMILES_STRING": "CCOc1ccc(-c2nc3ccc(N4CCN(C)CC4)cc3[nH]2)cc1", "ΔTm [°C]": 1.7}
{"SMILES_STRING": "CN1CCN(c2ccc3nc(-c4ccc(OCCCNC(=O)OC(C)(C)C)cc4)[nH]c3c2)CC1", "ΔTm [°C]": 1}
{"SMILES_STRING": "CN1CCN(c2ccc3nc(-c4ccc(OCCN=[N+]=[N-])cc4)[nH]c3c2)CC1", "ΔTm [°C]": 1.9}
{"SMILES_STRING": "C#CCCCCCCc1cn(CCOc2ccc(-c3nc4ccc(N5CCN(C)CC5)cc4[nH]3)cc2)nn1", "ΔTm [°C]": 0.5}

Qu. Item `CN1CCN(c2ccc3nc(-c4ccc(OCc5cn(CCN=[N+]=[N-])nn5)cc4)[nH]c3c2)CC1` : provide ΔTm
Ans. 1.2

Qu. Item `C#CCOCCCCCCCCCCOc1ccc(-c2nc3ccc(-c4nc5ccc(N6CCN(C)CC6)cc5[nH]4)cc3[nH]2)cc1` : provide ΔTm
Ans. 5.6

Qu. Item `C#CCOCCCCCCCCOc1ccc(-c2nc3ccc(-c4nc5ccc(N6CCN(C)CC6)cc5[nH]4)cc3[nH]2)cc1` : provide ΔTm
Ans. 13.1

The reported numbers originate from ChEMBL document CHEMBL4014329.
